// normalized growth lookup, one value per entry
experiment: chemical genetic growth profiling, strain panel (AID 1159580);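 also: tested at 20 µM; growth read once vehicle control cultures reached saturation at 30 °C; 1 = growth at the plate median or of vehicle wells; lower values mean less growth of the strain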; conditions: S. cerevisiae deletion strains, growth OD, locus YML120C, strain ndi1, active compounds read low
Among all 5,500 compounds or so, about 2,000 (36%) were called active. About 18% were inconclusive and are not listed. The list shows a part of the results.
Respond with the number and no other words.

Worked examples follow.
Q: Tell me the measured normalized growth of CC(=O)O[C@H]1C[C@@H](OC(C)=O)C(C)(C)C2C[C@@H](O)[C@]3(C)C(CC[C@@]4(C)[C@H](c5ccoc5)OC(=O)[C@H]5O[C@]543)[C@]21C (stereo partly drawn) , please.
Result: 1.01

Q: Now try Cc1oncc1C(=O)Nc1ccc(C(F)(F)F)cc1 .
Result: 0.979

Q: How about O=C(O)C1CCCNC1 (stereo not drawn) ?
Result: 1.01

Q: What about COc1ccc2oc3ccccc3c(=O)c2c1 ?
Result: 0.742

Q: COC1C=CC23c4cc5c(cc4CN(CC2O)[C@@H]3C1)OCO5 (stereo partly drawn) , same question.
Result: 1

***
Q: normalized growth lookup needed for CCCCCCCCCCCCCC(=O)OC1C(C)C2(O)C(C=C(CO)CC3(O)C(=O)C(C)=CC32)C2C(C)(C)C12OC(C)=O (stereo not drawn) , thanks.
Result: 0.983

Q: Now the same for O=C(O)COc1ccc(Cl)cc1Cl
Result: 0.989

Q: Next up: CC(=O)O[C@@H]1CC2C(C)(C)[C@H](O)CC[C@]2(C)C2CC[C@@]3(C)[C@H](c4ccoc4)OC(=O)C4OC43[C@@]21C (stereo partly drawn)
Result: 1.03

Q: Continue with C=NC(C(=O)NC1C(=O)N2C1SC(C)(C)C2C(=O)O)c1ccccc1 (stereo not drawn)
Result: 0.972
